Taken from the kinase profiling compilation of Christmann-Franck et al. (2016).

biological target: CDK2 CCNA2 (human) (UniProt P20248+P24941); test: radiometric filter-binding kinase assay; settings: compound 1.0 µM
Measured Quantity: residual activity (%)
Your answer should be a plain number; it is taken to be in %.

molecule=Cc1ccc(Sc2cnc(Nc3cccc(Br)n3)s2)cc1C(=O)N1CCN(C(=O)CN)CC1 measured_quantity="residual activity" observed_value=15

What value of residual activity has been reported for the following molecule? `Cn1c(=O)c2c(ncn2C)n(C)c1=O`
91

What value of residual activity has been reported for the following molecule? `c1ccc2c(-c3cnn4cc(-c5ccc(N6CCNCC6)cc5)cnc34)ccnc2c1`
84

What value of residual activity has been reported for the following molecule? C=C1C(=O)OC2C1CC/C(C)=C/CCC1(C)OC21 (stereo unspecified)
93

What value of residual activity has been reported for the following molecule? `Cc1cccc(Nc2nn(C)c3ncnc(N)c23)c1`
97

What value of residual activity has been reported for the following molecule? `Oc1ccc(/C=C/c2cc(O)cc(O)c2)cc1`
103

What value of residual activity has been reported for the following molecule? `O=C(O)c1ccc(-c2c[nH]c3ncc(-c4ccccc4)cc23)cc1C1CCCC1`
1

----------
test system: RPS6KB1 (human), P23443 [T412E]; assay: radiometric filter-binding kinase assay; conditions: compound 1.0 µM
Sequence (P23443 whole entry T412E, looked up): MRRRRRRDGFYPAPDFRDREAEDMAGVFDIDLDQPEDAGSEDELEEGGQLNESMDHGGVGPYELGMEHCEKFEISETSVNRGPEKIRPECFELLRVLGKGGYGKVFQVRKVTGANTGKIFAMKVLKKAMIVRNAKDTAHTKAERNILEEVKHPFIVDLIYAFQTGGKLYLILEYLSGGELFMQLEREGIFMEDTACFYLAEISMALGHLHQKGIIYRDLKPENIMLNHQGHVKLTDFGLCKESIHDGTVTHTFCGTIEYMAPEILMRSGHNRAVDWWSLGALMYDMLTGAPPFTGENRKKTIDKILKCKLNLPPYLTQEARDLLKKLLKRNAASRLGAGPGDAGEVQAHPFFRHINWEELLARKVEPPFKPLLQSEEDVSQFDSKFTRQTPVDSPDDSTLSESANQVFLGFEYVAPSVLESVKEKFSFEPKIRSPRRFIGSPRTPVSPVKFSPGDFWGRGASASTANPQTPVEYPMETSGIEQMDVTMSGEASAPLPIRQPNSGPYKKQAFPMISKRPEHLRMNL
residual activity values by entry
Your answer should be a plain number; it is taken to be in %.

For orientation, consider the following solved cases.
compound=COc1cc2ncn(-c3cc(OCc4ccccc4S(C)(=O)=O)c(C#N)s3)c2cc1OC measured_quantity="residual activity" output_unit=% observed_value=87
compound="C=C1C(=O)OC2C1CC/C(C)=C/CCC1(C)OC21 (stereo not given)" measured_quantity="residual activity" output_unit=% observed_value=103
compound=Cc1ccc(-c2ccc3c(ccc4sc5c(c43)NC[C@@H](C)NC5=O)n2)cn1 measured_quantity="residual activity" output_unit=% observed_value=95
compound=N#Cc1c(C2CCNCC2)cc(-c2c(O)cccc2OCC2CC2)nc1N measured_quantity="residual activity" output_unit=% observed_value=88
compound=Cn1c(=O)c2c(ncn2C)n(C)c1=O measured_quantity="residual activity" output_unit=% observed_value=98

What value of residual activity has been reported for the following compound? `Cc1ccc(=O)n(-c2ccccc2)c1`
115

What value of residual activity has been reported for the following compound? `Cc1cc(NC(=O)c2cccc(NC(=O)/C=C/CN(C)C)c2)ccc1Nc1nccc(-c2cccnc2)n1`
93

What value of residual activity has been reported for the following compound? `Cc1cccc(-c2nn(C(=S)Nc3ccccc3)cc2-c2ccnc3ccccc23)n1`
105

----------
biological target: SRPK1 (human) (UniProt Q96SB4); assay: radiometric filter-binding kinase assay; settings: compound 10.0 µM
Sequence (Q96SB4 whole entry, looked up): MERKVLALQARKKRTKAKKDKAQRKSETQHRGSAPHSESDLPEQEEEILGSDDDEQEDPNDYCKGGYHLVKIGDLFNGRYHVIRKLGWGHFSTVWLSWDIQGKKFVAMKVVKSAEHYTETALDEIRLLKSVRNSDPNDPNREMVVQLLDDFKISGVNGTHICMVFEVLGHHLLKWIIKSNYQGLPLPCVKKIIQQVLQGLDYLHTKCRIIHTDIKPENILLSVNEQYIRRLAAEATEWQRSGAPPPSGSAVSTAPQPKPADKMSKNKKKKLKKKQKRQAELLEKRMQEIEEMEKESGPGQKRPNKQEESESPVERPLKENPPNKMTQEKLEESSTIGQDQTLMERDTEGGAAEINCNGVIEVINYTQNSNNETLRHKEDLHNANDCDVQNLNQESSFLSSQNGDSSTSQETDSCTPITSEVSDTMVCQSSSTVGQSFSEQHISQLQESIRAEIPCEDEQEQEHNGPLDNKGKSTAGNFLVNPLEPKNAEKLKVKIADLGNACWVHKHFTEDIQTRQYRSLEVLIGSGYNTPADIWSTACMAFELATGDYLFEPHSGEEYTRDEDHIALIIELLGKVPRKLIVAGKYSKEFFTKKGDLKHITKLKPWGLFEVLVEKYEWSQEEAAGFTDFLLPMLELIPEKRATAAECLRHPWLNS
Label 1.0 for high-side residual activity (at or above 90%) and 0.0 for low-side residual activity (below it).

// known answers, use as guide
compound_string=NC(=O)c1cc2c(-c3cccc(-c4ccccc4)c3)cnc(N)c2s1 target="SRPK1 (human) (UniProt Q96SB4)" label_class=0.0
compound_string=NCC(=O)Nc1ccc(-n2nc(C(F)(F)F)cc2-c2ccc3c(ccc4ccccc43)c2)cc1 target="SRPK1 (human) (UniProt Q96SB4)" label_class=0.0
compound_string=N#Cc1c(C2CCNCC2)cc(-c2c(O)cccc2OCC2CC2)nc1N target="SRPK1 (human) (UniProt Q96SB4)" label_class=1.0

Answer whether residual activity of `O=C(Nc1ccccc1-c1cn2c(CN3CCNCC3)csc2n1)c1cnc2ccccc2n1` is greater than or equal to 90%.
0.0

Answer whether residual activity of `NC(=O)c1c(NC(=O)C2CC2)sc2c1CCCC2` is greater than or equal to 90%.
1.0

----------
biological target: UniProtKB Q16816; assay: radiometric filter-binding kinase assay; settings: compound 10.0 µM
Sequence (Q16816 whole entry, looked up): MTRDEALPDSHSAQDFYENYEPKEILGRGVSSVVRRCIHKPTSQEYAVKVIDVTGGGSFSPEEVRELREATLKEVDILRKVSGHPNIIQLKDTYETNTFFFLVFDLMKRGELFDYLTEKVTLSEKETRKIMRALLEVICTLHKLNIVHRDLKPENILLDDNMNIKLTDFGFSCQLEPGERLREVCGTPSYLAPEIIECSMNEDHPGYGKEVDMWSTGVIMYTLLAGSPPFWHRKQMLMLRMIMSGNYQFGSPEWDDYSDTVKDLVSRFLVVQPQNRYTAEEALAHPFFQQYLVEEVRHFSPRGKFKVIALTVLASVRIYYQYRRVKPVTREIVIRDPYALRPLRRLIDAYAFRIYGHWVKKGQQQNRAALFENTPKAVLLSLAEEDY
Measured Quantity: residual activity (%)
Your answer should be a plain number; it is taken to be in %.

compound=Cc1ccc(-c2ccc3c(ccc4sc5c(c43)NC[C@@H](C)NC5=O)n2)cn1 measured_quantity="residual activity" observed_value=86
compound=Cc1ccc(=O)n(-c2ccccc2)c1 measured_quantity="residual activity" observed_value=96
compound=CCNc1nc(Nc2cc(F)c(C(=O)N3CCOCC3)cc2OC)ncc1C(F)(F)F measured_quantity="residual activity" observed_value=3
compound="CC1=C(CO)C(=O)O[C@@H]([C@@H](C)[C@H]2CC[C@H]3[C@@H]4C[C@H]5O[C@]56[C@@H](O)C=CC(=O)[C@]6(C)C4CC[C@]23C)C1 (some centres undefined)" measured_quantity="residual activity" observed_value=105
compound=CCc1cncnc1N1CCN(Cc2nc3cc(C(F)(F)F)ccc3[nH]2)CC1 measured_quantity="residual activity" observed_value=104
compound=FC(F)(F)c1ccc(-c2ccc(Oc3cncc4sc(-c5nn[nH]n5)cc34)cc2)cc1 measured_quantity="residual activity" observed_value=82

What value of residual activity has been reported for the following compound? `NC1(c2ccc(-c3nc4ccn5c(=O)[nH]nc5c4cc3-c3ccccc3)cc2)CCC1`
68

What value of residual activity has been reported for the following compound? `O=C(O)c1cc(N=Nc2ccc(S(=O)(=O)Nc3ccccn3)cc2)ccc1O`
94

What value of residual activity has been reported for the following compound? `Cc1cc(SCc2sc(-c3ccc(C(F)(F)F)cc3)nc2C)ccc1OCC(=O)O`
96

----------
target: MKNK1 (human) (UniProt Q9BUB5); test: radiometric filter-binding kinase assay; settings: compound 1.0 µM
Sequence (Q9BUB5 whole entry, looked up): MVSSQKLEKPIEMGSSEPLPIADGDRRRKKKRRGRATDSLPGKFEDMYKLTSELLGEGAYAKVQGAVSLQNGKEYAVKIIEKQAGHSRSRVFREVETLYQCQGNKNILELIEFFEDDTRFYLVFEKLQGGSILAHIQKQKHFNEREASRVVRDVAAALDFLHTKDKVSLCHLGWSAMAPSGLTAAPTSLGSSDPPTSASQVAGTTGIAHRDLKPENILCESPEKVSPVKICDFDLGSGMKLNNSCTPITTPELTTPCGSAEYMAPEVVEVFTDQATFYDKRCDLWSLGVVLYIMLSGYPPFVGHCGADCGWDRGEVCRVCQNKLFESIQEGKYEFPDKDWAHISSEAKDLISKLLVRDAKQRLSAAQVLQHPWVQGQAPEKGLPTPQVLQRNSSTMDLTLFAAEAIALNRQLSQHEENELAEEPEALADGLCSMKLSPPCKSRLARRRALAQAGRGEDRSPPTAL
Measured Quantity: residual activity
A complete answer gives the number followed by the unit.

What value of residual activity has been reported for the following compound? Nc1cccc2c1CN(C1CCC(=O)NC1=O)C2=O (stereo not drawn)
116%

----------
target: CAMKK2 (human) (UniProt Q96RR4); assay: radiometric filter-binding kinase assay; conditions: compound 10.0 µM
Sequence (Q96RR4 whole entry, looked up): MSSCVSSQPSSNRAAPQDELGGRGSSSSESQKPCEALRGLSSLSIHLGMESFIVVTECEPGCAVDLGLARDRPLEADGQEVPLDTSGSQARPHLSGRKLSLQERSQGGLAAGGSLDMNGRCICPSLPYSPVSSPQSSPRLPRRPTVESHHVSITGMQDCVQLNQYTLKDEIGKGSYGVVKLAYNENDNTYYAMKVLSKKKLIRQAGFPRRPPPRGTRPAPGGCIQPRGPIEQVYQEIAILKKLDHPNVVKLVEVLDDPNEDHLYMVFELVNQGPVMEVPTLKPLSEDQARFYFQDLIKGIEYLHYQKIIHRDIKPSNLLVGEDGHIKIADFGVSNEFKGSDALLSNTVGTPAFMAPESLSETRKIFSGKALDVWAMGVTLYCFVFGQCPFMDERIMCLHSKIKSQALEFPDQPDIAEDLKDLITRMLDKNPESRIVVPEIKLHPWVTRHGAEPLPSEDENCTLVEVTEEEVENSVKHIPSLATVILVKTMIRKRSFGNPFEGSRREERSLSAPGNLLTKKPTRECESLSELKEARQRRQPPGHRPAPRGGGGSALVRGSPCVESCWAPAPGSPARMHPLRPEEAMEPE
Measured Quantity: residual activity (%)
Your answer should be a plain number; it is taken to be in %.

For orientation, consider the following solved cases.
compound=CNc1nc(-c2ccc3c(N)n[nH]c3c2)cc(N2C[C@@H](C(=O)NC3CCCCC3)CC[C@H]2C)n1 target="CAMKK2 (human) (UniProt Q96RR4)" measured_quantity="residual activity" observed_value=91
compound=Cc1ccc2c(c1)C(=O)[C@@]1(O)CCN(c3ccccc3)C1=N2 target="CAMKK2 (human) (UniProt Q96RR4)" measured_quantity="residual activity" observed_value=90
compound=O=c1c(O)c(-c2ccc(O)c(O)c2)oc2cc(O)c(O)c(O)c12 target="CAMKK2 (human) (UniProt Q96RR4)" measured_quantity="residual activity" observed_value=61
compound=Cc1ccc(=O)n(-c2ccccc2)c1 target="CAMKK2 (human) (UniProt Q96RR4)" measured_quantity="residual activity" observed_value=108
compound="O=C(NOCC(O)CO)c1ccc(F)c(F)c1Nc1ccc(I)cc1Cl (centres undefined)" target="CAMKK2 (human) (UniProt Q96RR4)" measured_quantity="residual activity" observed_value=103

What value of residual activity has been reported for the following compound? `NS(=O)(=O)OC[C@@H]1C[C@@H](n2ccc3c(N[C@H]4CCc5ccccc54)ncnc32)C[C@@H]1O`
108

----------
residual activity values by entry
molecular target: UniProt Q9P1W9; test: radiometric filter-binding kinase assay; details: compound 10.0 µM
Sequence (Q9P1W9 whole entry, looked up): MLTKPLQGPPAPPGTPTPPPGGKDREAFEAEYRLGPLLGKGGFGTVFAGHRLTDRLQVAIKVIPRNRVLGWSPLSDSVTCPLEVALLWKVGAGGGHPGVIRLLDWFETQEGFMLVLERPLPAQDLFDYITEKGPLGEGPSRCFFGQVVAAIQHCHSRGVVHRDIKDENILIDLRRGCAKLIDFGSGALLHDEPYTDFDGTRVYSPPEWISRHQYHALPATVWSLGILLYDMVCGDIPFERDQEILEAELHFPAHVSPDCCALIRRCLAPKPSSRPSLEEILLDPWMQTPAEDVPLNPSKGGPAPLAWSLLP
Your answer should be a plain number; it is taken to be in %.

molecule=C=CC(=O)N1CCC[C@@H](n2nc(-c3ccc(Oc4ccccc4)cc3)c3c(N)ncnc32)C1 output_unit=% observed_value=97

What value of residual activity has been reported for the following molecule? O=C(NOCC(O)CO)c1ccc(F)c(F)c1Nc1ccc(I)cc1Cl (stereo not drawn)
93

What value of residual activity has been reported for the following molecule? `CNc1nc(-c2ccc3c(N)n[nH]c3c2)cc(N2C[C@@H](C(=O)NC3CCCCC3)CC[C@H]2C)n1`
110

----------
molecular target: CHEK1 (human); experiment: radiometric filter-binding kinase assay; settings: compound 10.0 µM
Measured Quantity: residual activity (%)
Your answer should be a plain number; it is taken to be in %.

compound=c1ccc2c(-c3cnn4cc(-c5ccc(N6CCNCC6)cc5)cnc34)ccnc2c1 observed_value=96
compound=C[C@H]1CCCC(=O)CCC/C=C/c2cc(O)cc(O)c2C(=O)O1 observed_value=81

Next up:
What value of residual activity has been reported for the following compound? `Cc1cc(SCc2sc(-c3ccc(C(F)(F)F)cc3)nc2C)ccc1OCC(=O)O`
120

----------
residual activity values by entry
target: STK16 (human) (UniProt O75716); assay: radiometric filter-binding kinase assay; details: compound 1.0 µM
Sequence (O75716 whole entry, looked up): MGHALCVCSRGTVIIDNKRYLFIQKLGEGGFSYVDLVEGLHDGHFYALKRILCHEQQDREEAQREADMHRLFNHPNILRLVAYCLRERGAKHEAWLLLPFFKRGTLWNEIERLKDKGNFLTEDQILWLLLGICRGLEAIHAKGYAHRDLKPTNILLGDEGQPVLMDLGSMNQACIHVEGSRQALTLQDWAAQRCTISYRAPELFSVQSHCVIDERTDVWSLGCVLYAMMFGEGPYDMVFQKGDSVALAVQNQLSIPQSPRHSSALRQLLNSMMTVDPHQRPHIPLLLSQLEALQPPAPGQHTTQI
Your answer should be a plain number; it is taken to be in %.

For orientation, consider the following solved cases.
compound="O=C(NOCC(O)CO)c1ccc(F)c(F)c1Nc1ccc(I)cc1Cl (stereo unspecified)" target="STK16 (human) (UniProt O75716)" measured_quantity="residual activity" output_unit=% observed_value=87
compound=CCNc1nc(Nc2cc(F)c(C(=O)N3CCOCC3)cc2OC)ncc1C(F)(F)F target="STK16 (human) (UniProt O75716)" measured_quantity="residual activity" output_unit=% observed_value=97
compound="COc1cc(O)c2c(c1)[C@H]1OC1C[C@H](O)[C@H](O)C(=O)/C=C\\C[C@H](C)OC2=O (stereo partly specified)" target="STK16 (human) (UniProt O75716)" measured_quantity="residual activity" output_unit=% observed_value=102
compound=NC(=O)c1c(NC(=O)C2CC2)sc2c1CCCC2 target="STK16 (human) (UniProt O75716)" measured_quantity="residual activity" output_unit=% observed_value=107
compound=COc1cc(O)c2c(c1)/C=C/C[C@H](O)[C@H](O)C(=O)/C=C\C[C@H](C)OC2=O target="STK16 (human) (UniProt O75716)" measured_quantity="residual activity" output_unit=% observed_value=101

Next up:
What value of residual activity has been reported for the following compound? `O=C(NOC[C@H](O)CO)c1ccc(F)c(F)c1Nc1ccc(I)cc1Cl`
85
